Biological target: unphosphorylated-BTK kinase domain (UP-BTK), GST-tagged human BTK (389-659aa) (Homo sapiens (Human), UniProt Q06187)
Sequence (Q06187 389-659): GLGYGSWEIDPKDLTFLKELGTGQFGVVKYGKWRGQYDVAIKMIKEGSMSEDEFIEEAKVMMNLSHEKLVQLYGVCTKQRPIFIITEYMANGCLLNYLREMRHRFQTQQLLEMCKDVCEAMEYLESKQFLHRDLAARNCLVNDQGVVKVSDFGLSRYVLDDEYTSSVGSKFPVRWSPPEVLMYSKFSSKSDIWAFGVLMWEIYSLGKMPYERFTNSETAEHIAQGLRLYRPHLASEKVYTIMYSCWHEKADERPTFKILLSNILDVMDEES
Assay: BTK Kinase Lanthascreen Binding Assay
Conditions: compound, 50 nM Tracer 236, 2 nM anti-GST antibody, 60 minutes; pIC50 = negative log of the IC50 in molar
reported-property: BTK_I_binding pIC50

Documented BTK_I_binding pIC50 of Cc1cc(Oc2ccccc2)ccc1N1C(=O)Nc2c(C(=O)N[C@H]3CCC[C@@H]3N(C)C)sc3nccc1c23 : 7.12

For reference, reported BTK_I_binding pIC50 for CCC(=O)N[C@H]1CC[C@@H](NC(=O)c2sc3nccc4c3c2NC(=O)N4c2ccc(Oc3ccccc3)cc2C)CC1 (single isomer, unassigned) [Example 92] stands at 6.91

Reported BTK_I_binding pIC50 ( Cc1cc(Oc2ccccc2)ccc1N1C(=O)Nc2c(C(=O)NC3CCCC3)sc3nccc1c23 [Example 81] ) = 7.03

Query Cc1cc(Oc2ccccc2)ccc1N1C(=O)Nc2c(C(=O)N[C@@H]3CCCC[C@@H]3N)sc3nccc1c23 [Example 10] yields BTK_I_binding pIC50 of 7.35

# BTK_I_binding pIC50 (compound: Cc1cc(Oc2ccccc2)ccc1N1C(=O)Nc2c(C(=O)N[C@H]3CCC[C@H]3NC(=O)CN(C)C)sc3nccc1c23 (single isomer, unassigned) ) is 6.35

Entry C=CC(=O)N[C@@H]1CC[C@@H](NC(=O)c2sc3nccc4c3c2NC(=O)N4c2ccnc(-c3ccccc3)c2)C1 ; BTK_I_binding pIC50 = 7.49

response.value for C=CC(=O)N[C@H]1CCC[C@H]1NC(=O)c1sc2nccc3c2c1NC(=O)N3c1cccc(-c2ccccc2)c1 (field: BTK_I_binding pIC50) = 8.09

Notebook: Cc1cc(Oc2ccccc2)ccc1N1C(=O)Nc2c(C(=O)N[C@H]3CCC[C@@H]3NC(=O)CN(C)C)sc3nccc1c23 (single isomer, unassigned) , BTK_I_binding pIC50 read as 7.07

CNCC(=O)N[C@@H]1CC[C@H](NC(=O)c2sc3nccc4c3c2NC(=O)N4c2ccc(Oc3ccccc3)cc2C)C1 [Example 72] yielded BTK_I_binding pIC50 of 7.02

Reported BTK_I_binding pIC50 of Cc1cc(Oc2ccccc2)ccc1N1C(=O)Nc2c(C(=O)N[C@@H]3CCC[C@H]3O)sc3nccc1c23 (single isomer, unassigned) [Example 61] : 5.36

Query CC(C)(C)OC(=O)N[C@H]1CC[C@@H](NC(=O)c2sc3nccc4c3c2NC(=O)N4c2ccc(Oc3ccccc3)cc2)CC1 yields BTK_I_binding pIC50 of 5.43

GET /value?item= Cc1cc(Oc2ccccc2)ccc1N1C(=O)Nc2c(C(=O)N[C@@H]3CCC[C@H]3N)sc3nccc1c23 (single isomer, unassigned) [Example 120] &field=BTK_I_binding pIC50 returns 7.54

Sure, the documented BTK_I_binding pIC50 for Cc1cc(Oc2ccccc2)ccc1N1C(=O)Nc2c(C(=O)N[C@H]3CCC[C@@H]3NC(=O)CN)sc3nccc1c23 (single isomer, unassigned) is 7.17

This collection of values is drawn from patent US10934310B2.
